Measured neutralization IC50 values are reported for all entries that follow.
study target: HIV-1 envelope glycoprotein gp120 of virus VS001 (HIV-1)
method notes: cell-based or functional assay

binder | neutralization IC50 (µg/mL)
2.3.18-1 (antibody, human IgG1, kappa, V domains shown) VH: QVHLSQSGAAVTKPGASVRVSCEASGYNIRDYFIHWWRQAPGQGLQWVGWINPKTGQPNNPRQFQGRVSLTRHASWDFDTFSFYMDLKAVRSDDTAIYFCARQRSDYWDFDVWGSGTQVTVSS VL: DIQMTQSPSSLSARVGDRATITCQANGYLNWYQQRRGKAPKLLIYDGSKLERGVPARFSGSRWGQEYHLTISSLQPEDVATYFCQVYEFFGPGTRLDLKR | 2.37
1.1.104-1 (antibody, human IgG1, kappa, V domains shown) VH: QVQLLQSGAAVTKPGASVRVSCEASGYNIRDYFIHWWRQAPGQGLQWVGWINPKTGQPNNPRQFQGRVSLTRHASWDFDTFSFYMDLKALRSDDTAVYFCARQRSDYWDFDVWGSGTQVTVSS VL: DIQMTQSPSSLSASVGDTATITCQANGYLNWYQQRRGKAPKLLIYDGSKLERGVPSRFSGRRWGQEYTLTINNLQPEDIATYFCQVYEFFGPGTRLDLKR | 0.45
2.2.12-1 (antibody, human IgG1, kappa, V domains shown) VH: QVHLSQSGAAVTKPGASVRVSCEASGYKIRDHFIHWWRQAPGQGLQWVGWINPKTGQPNNPRQFQGRVSLTRHASWDFDTFSFYMDLKAVRSDDTAIYFCARQRSDYWDFDVWGSGTQVTVSS VL: DIQMTQSPSSLSARVGDTATITCQANGYLNWYQQRRGKAPKLLIYDGSKLERGVPARFSGRRWGQEYILTINNLQPEDVATYFCQVYEFFGPGTRLDLKR | 2.1
